Catalogue of compounds with associated cytotoxicity at 48 h, 100 µg/ml
- measurement.notes: MTT cytotoxicity assay, HTC-116
- Type: cell-based, human
- measurement.parameters: human, HTC-116 cells (human colorectal carcinoma), HTC-116, 100 ug/ml, 48 h
readout: cytotoxicity at 48 h, 100 µg/ml (%)

INSERT INTO measurements (compound, measured) VALUES
  ('COc1c(O)cc2oc(-c3ccccc3)c(OC)c(=O)c2c1O [5,7-Dihydroxy-3,6-dimethoxyflavone]', 85.9),
  ('COc1cccc2c1C(=O)c1c(O)c3c(c(O)c1C2=O)C[C@@](O)(C(=O)CO)C[C@@H]3O[C@H]1C[C@H](N)[C@H](O)[C@H](C)O1 [Doxorubicin, reference compound]', 91.2);

* * *

Reported cytotoxicity at 48 h, 12.5 µg/ml values follow for various compounds
- measurement.notes: MTT cytotoxicity assay, HTC-116
- Format: cell-based, human
- measurement.parameters: human, HTC-116 cells (human colorectal carcinoma), HTC-116, 12.5 ug/ml, 48 h
readout: cytotoxicity at 48 h, 12.5 µg/ml (%)

INSERT INTO assay_data (compound, readout, measured) VALUES
  ('COc1cccc2c1C(=O)c1c(O)c3c(c(O)c1C2=O)C[C@@](O)(C(=O)CO)C[C@@H]3O[C@H]1C[C@H](N)[C@H](O)[C@H](C)O1 [Doxorubicin, reference compound]', 'cytotoxicity at 48 h, 12.5 µg/ml', 43.1),
  ('COc1c(O)cc2oc(-c3ccccc3)c(OC)c(=O)c2c1O [5,7-Dihydroxy-3,6-dimethoxyflavone]', 'cytotoxicity at 48 h, 12.5 µg/ml', 39.2);

* * *

- assay.system: UniProt P35354
- Sequence (P35354 18-604): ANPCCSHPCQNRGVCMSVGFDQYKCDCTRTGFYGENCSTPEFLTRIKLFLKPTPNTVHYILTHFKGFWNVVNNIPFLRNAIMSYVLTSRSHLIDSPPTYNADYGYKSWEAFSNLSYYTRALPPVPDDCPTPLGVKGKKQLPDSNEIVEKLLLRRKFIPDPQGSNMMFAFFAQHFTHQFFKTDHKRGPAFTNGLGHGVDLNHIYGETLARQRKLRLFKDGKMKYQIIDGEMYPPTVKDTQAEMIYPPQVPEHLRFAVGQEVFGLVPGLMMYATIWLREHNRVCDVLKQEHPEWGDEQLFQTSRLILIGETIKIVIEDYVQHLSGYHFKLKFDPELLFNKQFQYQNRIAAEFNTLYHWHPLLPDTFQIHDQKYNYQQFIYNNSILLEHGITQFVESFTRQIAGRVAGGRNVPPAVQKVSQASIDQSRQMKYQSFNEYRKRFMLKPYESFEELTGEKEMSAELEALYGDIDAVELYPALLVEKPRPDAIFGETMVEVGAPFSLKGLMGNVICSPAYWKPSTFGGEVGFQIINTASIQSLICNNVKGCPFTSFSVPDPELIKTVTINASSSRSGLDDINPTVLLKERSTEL
pIC50: −log10 of the molar value.
readout: pIC50

INSERT INTO assay_data (compound, readout, measured) VALUES
  ('COc1c(O)cc2oc(-c3ccccc3)c(OC)c(=O)c2c1O [5,7-Dihydroxy-3,6-dimethoxyflavone]', 'pIC50', 5.33);

* * *

- assay.system: 5-LOX enzyme (human recombinant) (Homo sapiens, UniProt P09917)
- Sequence (P09917 whole entry): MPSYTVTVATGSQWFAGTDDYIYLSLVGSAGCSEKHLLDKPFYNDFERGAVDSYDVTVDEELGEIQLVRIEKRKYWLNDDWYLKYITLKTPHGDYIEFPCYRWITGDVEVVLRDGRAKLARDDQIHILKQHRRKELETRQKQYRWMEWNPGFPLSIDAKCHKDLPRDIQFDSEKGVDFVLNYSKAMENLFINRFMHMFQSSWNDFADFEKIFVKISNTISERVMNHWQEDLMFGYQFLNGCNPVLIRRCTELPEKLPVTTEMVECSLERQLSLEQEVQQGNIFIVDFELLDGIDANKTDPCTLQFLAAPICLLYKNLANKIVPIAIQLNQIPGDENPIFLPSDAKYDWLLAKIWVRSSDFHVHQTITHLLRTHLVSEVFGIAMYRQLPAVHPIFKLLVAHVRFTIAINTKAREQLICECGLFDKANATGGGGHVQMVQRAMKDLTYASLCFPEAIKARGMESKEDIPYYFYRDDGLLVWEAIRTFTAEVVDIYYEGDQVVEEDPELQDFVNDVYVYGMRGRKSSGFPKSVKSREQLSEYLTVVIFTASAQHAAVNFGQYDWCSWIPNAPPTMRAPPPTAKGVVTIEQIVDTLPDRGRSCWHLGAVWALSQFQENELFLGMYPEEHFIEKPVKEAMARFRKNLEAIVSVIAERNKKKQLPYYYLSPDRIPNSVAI
- measurement.notes: 5-lipoxygenase inhibition assay (5-LOX kit)
- measurement.parameters: mean ± SE, n = 3
readout: IC50 (µM)

INSERT INTO assay_data (compound, measured) VALUES
  ('COc1c(O)cc2oc(-c3ccccc3)c(OC)c(=O)c2c1O [5,7-Dihydroxy-3,6-dimethoxyflavone]', 3.14);

* * *

- measurement.notes: MTT cytotoxicity assay, HepG2
- Assay type: cell-based, human
- measurement.parameters: human, HepG2 cells (hepatocellular carcinoma), HepG2, 50 ug/ml, 48 h
cytotoxicity at 48 h, 50 µg/ml by entry:
readout: cytotoxicity at 48 h, 50 µg/ml (%)

INSERT INTO measurements (compound, measured) VALUES
  ('COc1c(O)cc2oc(-c3ccccc3)c(OC)c(=O)c2c1O [5,7-Dihydroxy-3,6-dimethoxyflavone]', 69.9),
  ('COc1cccc2c1C(=O)c1c(O)c3c(c(O)c1C2=O)C[C@@](O)(C(=O)CO)C[C@@H]3O[C@H]1C[C@H](N)[C@H](O)[C@H](C)O1 [Doxorubicin, reference compound]', 76);
